# Tested on: RSK2(Kin.Dom.2-C-terminal);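 further: kd values determined as follow-up on hits from a single-replicate KINOMEscan panel screen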
# Construct: gene RPS6KA3
MEASURE NAME: Kd (nM)
Dear colleague, please return just the value in nM, with no unit written.

Documented Kd of Nc1nc(-c2ccccc2F)c(-c2ccnc3ccccc23)s1 [GW560459] : 790

====

# Test system: MAK;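 further: KINOMEscan kinase panel screen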
# CONDITION DESCRIPTION: concentration: 1 μM, replicates: in singlicate; n = 1
For each entry below, report its %Inh value.
Dear colleague, please return just the value in %, with no unit written.

Documented %Inh of Nc1n[nH]c2ncc(-c3ccccc3)cc12 [SB-517081] : 17

Documented %Inh of Cc1ccc(-c2ccc3c(ccc4sc5c(c43)NC[C@@H](C)N=C5N(C)C)n2)cn1 : 17

Documented %Inh of COc1ccc(CNC(=O)NC2CCN(c3ccnc(Nc4ccc(F)cc4)n3)C2)cc1 (centres unmarked) [GSK1379706] : 30

Documented %Inh of CCc1nc(-c2cccc(C)c2)c(-c2ccncc2)s1 : 0

Documented %Inh of COc1ccc(Nc2nccc(N3CCC(NS(=O)(=O)c4ccc(NC(C)=O)cc4)C3)n2)cc1 (centres unmarked) [GSK1379729] : 30

Each recorded value in this set is attributed to paper PMC5540273.
